src = PubChem BioAssay (NCI)

Assignment: determine reported TGI for the given molecules.
Tested on: SK-MEL-28 melanoma
Assay: NCI tumour cell line growth inhibition, 48 h
Where a SMILES comes first, the peptide text is derived from it. [ ]: non-standard residue; d: D form. The star is where a group is joined. NMeF = CN[CH](Cc1ccccc1)C(=O)O; NMeV = CN[CH](C(=O)O)C(C)C; Boc = CC(C)(C)OC(=O)*

* Oc1ccccc1C(Sc1nc2ccccc2s1)Sc1nc2ccccc2s1 | > 100 µM
* O=C(O)C1OC(n2cc(F)c(=O)[nH]c2=O)CC1O (stereo not given) | > 63.1 µM
* CCOP(C)(=O)C(N)Cc1ccc(OC)c(OC)c1 (stereo not given) | > 100 µM
* CC(C)C(NC(=O)OC(C)(C)C)C(=O)N(C)C(Cc1ccccc1)C(=O)N(C)C(C(=O)O)C(C)C (stereo not drawn) (Boc-Val-[NMeF]-[NMeV]-OH; configuration not given here) | > 100 µM
* N#CC(NNC(=O)Cc1ccccc1)c1c(O)ccc2ccccc12 (stereo not given) | 97.7 µM
* CCC[CH2][Sn]1([CH2]CCC)[O]CC(CN2CCCC2)[O]1 (stereo not given) | 34.9 µM
* O=C(O)Cc1cccc2c(=O)c3ccccc3oc12 | > 100 µM
* COc1cc(/C=C/c2cc(/C=C/c3ccc(O)c(OC)c3)n(C(=O)Nc3ccc(F)c(Cl)c3)n2)ccc1O | 3.92 µM
* CC(=O)OCC12C(=O)C[C@@H](C)C3(CC(c4ccoc4)OC3=O)C1CCC(OC(C)=O)C21CO1 (stereo not given in full) | > 100 µM
* Cn1c2c(c3ccccc31)CC1c3c(c4ccccc4n3C)CC21 (stereo not given) | > 100 µM

Can you give me TGI for all of these, one by one?
1. CC(=O)[O-].CCN(CC)c1ccc(C=NCCN=Cc2ccc(N(CC)CC)cc2[O-])c([O-])c1.[Mn+3]
2. COc1cc(/C=C2/C[C@H]3[C@@H]4CC=C5C[C@@H](O)CC[C@]5(C)[C@H]4CC[C@]3(C)NC2=O)cc(OC)c1OC
3. Cc1ccc(N=Nc2c(O)ccc3cc(S(=O)(=O)O)cc(S(=O)(=O)O)c23)cc1
4. Nn1c(=O)n(Cc2ccccc2)n(-c2ccccc2)c1=O
5. CC(C)n1nc(-c2cc3cc(O)ccc3[nH]2)c2c(N)ncnc21
6. CCOC(=O)c1nc2ccc(C(F)(F)F)cc2nc1NCc1cc(OC)c(OC)c(OC)c1
7. O=C1CSC(c2cccc(Oc3ccccc3)c2)N1c1ccc(Cl)cc1 (stereo not given)
8. CCOc1ccccc1NC(=O)CC(C(=O)OC)C(=O)C(=O)OC (stereo not given)

// result
37.8 µM
> 100 µM
> 100 µM
> 100 µM
1.67 µM
> 100 µM
> 100 µM
> 100 µM

Can you give me TGI for all of these, one by one?
1. C(=Nc1ccc(-c2nc3ccccc3[nH]2)cc1)c1cccs1
2. Cc1ccc(C2=C(c3ccccc3)C(Br)(c3ccc(C)cc3)C(c3ccccc3)=C2c2ccc(C)cc2)cc1

// result
> 100 µM
> 100 µM

###

Test system: A498 renal
Experiment: NCI tumour cell line growth inhibition, 48 h
Assignment: determine reported TGI for the given compounds.

• O=C1CCN2C(=O)CCN12 = > 100 µM
• CSc1ccc2c(cc1=O)[C@@H](NC(=O)c1ccc(N)cc1)CCc1cc(O)c(O)c(O)c1-2 = > 100 µM
• CCOC(=O)N/N=C(/N)c1cccc([N+](=O)[O-])c1 = > 100 µM
• O=S(=O)(N=S(c1ccccc1)c1ccccc1)c1ccccc1 = > 100 µM
• CC(C)n1nc(-c2cc3cc(O)ccc3[nH]2)c2c(N)ncnc21 = 0.123 µM
• CSc1ncnc2c1ncn2C1CC(Oc2ccc(C)cc2)C(COc2ccc(C)cc2)O1 (stereo not given) = > 100 µM

Can you give me TGI for all of these, one by one?
1. CC(=O)OC(/C=C/c1ccccc1)=C(OC(C)C)/C1=C(\c2ccccc2)SCCCSC1=O
2. COc1ccccc1CNCCCN1C(=O)c2ccc3c4c(ccc(c24)C1=O)C(=O)N(CCCOCCCCOCCCN)C3=O
3. CCCCC(O)(c1ccc(Cl)cc1)C(CN1CCOCC1)c1ccc(Cl)cc1 (stereo not given)
4. CC1(C)NC2C(=O)c3c([nH]c4ccccc34)[C@]3(C)CCC1CC23 (stereo not given in full)

// result
1. > 100 µM
2. 2.7 µM
3. 24.1 µM
4. > 100 µM

###

System: MDA-MB-435
// classify into 1.0 for active, 0.0 for inactive

* COc1cc2ncnc(Nc3ccc(C)c(O)c3)c2cc1OC | 0.0
* NS(=O)(=O)c1ccc(N=Nc2c(O)[nH]c3ccc(-c4cnco4)cc23)cc1 | 0.0
* O=C(N/N=C/c1ccc(Cl)cc1)c1ccc(C(F)(F)F)nc1Nc1cccc(C(F)(F)F)c1 | 0.0

// query Just curious, what result did COc1cc(/C=C/c2cc(/C=C/c3ccc(O)c(OC)c3)n(C(=O)Nc3ccc(F)c(Cl)c3)n2)ccc1O get here?
// result 1.0

// query Just curious, what result did CC(C)n1nc(-c2cc3cc(O)ccc3[nH]2)c2c(N)ncnc21 get here?
// result 1.0

###

Assignment: determine reported TGI for the given molecules.
Tested on: MOLT-4 leukemia
Test: NCI tumour cell line growth inhibition, 48 h

- COc1cccc2c1C(=O)c1c(O)c3c(c(O)c1C2=O)C[C@@](O)(C(C)=O)C[C@@H]3OC1OC(C)C(O)C(N)C1Br (stereo partly specified): 0.0266 µM

Can you give me TGI for all of these, one by one?
1. COc1cccc(-c2ccc3c4c2O[C@H]2C(=O)CC[C@@]5(O)[C@@H](C3)N(CC3CC3)CC[C@]425)c1
2. c1ccc2c(c1)ccn2CCc1c[nH]c2ccccc12
3. CN1c2ccc(Cl)cc2C(=O)NC1c1ccc([N+](=O)[O-])s1 (stereo unspecified)
4. NCC1Nc2ccccc2[C@@H](O)C1O (stereo partly specified)
5. CC(=O)/C(C)=N/NC(=O)c1ccccc1O
6. COc1cc(/C=C2\C(=O)N(c3ccccc3)C(c3ccccc3)S2(=O)=O)cc(OC)c1OC (stereo unspecified)

// result
["24.7 µM", "> 10 µM", "33.7 µM", "> 100 µM", "> 100 µM", "> 100 µM"]

Can you give me TGI for all of these, one by one?
1. O=C(O)Cc1cccc2c(=O)c3ccccc3oc12
2. Cc1nc(N)sc1C(=O)/C=C\c1ccc2c(c1)OCO2
3. Cc1cc(C(=O)Nc2ncc(Cc3cccc(C(F)(F)F)c3)s2)c2ccccc2n1
4. O=C1CC(=Nc2ccc(Cl)cc2)C(c2ccccc2)N1c1ccccc1 (stereo unspecified)

// result
1. > 100 µM
2. > 100 µM
3. > 100 µM
4. > 100 µM

Can you give me TGI for all of these, one by one?
1. COc1ccccc1CNCCCN1C(=O)c2ccc3c4c(ccc(c24)C1=O)C(=O)N(CCCOCCCCOCCCN)C3=O
2. Cc1ccc(SCC(CF)OC(C)n2cnc3c(=O)[nH]c(N)nc32)cc1 (stereo unspecified)
3. CCOP(C)(=O)C(N)Cc1ccc(OC)c(OC)c1 (stereo unspecified)
4. O=S(=O)(N=S(c1ccccc1)c1ccccc1)c1ccccc1
5. Cn1c2c(c3ccccc31)CC1c3c(c4ccccc4n3C)CC21 (stereo unspecified)
6. Cc1ccc2c(c1)C(C(=O)N[C@@H]1C(=O)N3[C@@H]1SC(C)(C)[C@@H]3C(=O)O)OCCC2 (stereo partly specified)
7. CCOC(=O)/C=C(/C(=O)OCC)n1ccc(=O)n(Cc2cn(COCCOC(C)=O)nn2)c1=O

// result
1. 2.55 µM
2. > 100 µM
3. > 100 µM
4. > 100 µM
5. > 100 µM
6. > 100 µM
7. 41.3 µM

###

Tested on: OVCAR-3 ovarian
Experiment: NCI tumour cell line growth inhibition, 48 h
Experimental Readout: TGI

- Cn1cc(NC(=O)c2cc(NC(=O)CN=C(N)N)cn2C)cc1C(=O)NCCC(=N)N: > 100 µM

Can you give me TGI for all of these, one by one?
1. COC(C(O)CO)C(O)C(O)C(=O)NNc1ccccc1 (stereo unspecified)
2. O=P(Nc1ccc(Cl)cc1)(Oc1ccccc1)N(CCCl)CCCl (stereo unspecified)

// result
1. > 100 µM
2. > 100 µM

Can you give me TGI for all of these, one by one?
1. NS(=O)(=O)c1ccc(N=Nc2c(O)[nH]c3ccc(-c4cnco4)cc23)cc1
2. CCCN1CCC(=O)N(CCC(F)(F)C(F)(F)C(F)(F)C(F)(F)C(F)(F)C(F)(F)F)C1=S
3. NCC1Nc2ccccc2[C@@H](O)C1O (stereo partly specified)

// result
1. > 25 µM
2. > 100 µM
3. > 100 µM
